- EXPERIMENTAL_SYSTEM: Autotaxin (Homo sapiens)
- METHOD_NOTES: Inhibition of human ATX using FS-3 as substrate preincubated for 45 mins followed by substrate addition measured every 1 min for 30 mins by fluorescence based microplate reader analysis
As shown below, each of these compounds has a reported IC50 value.

* CCn1cc(NC(=O)NCc2ccc(Cl)cc2)c2cc(-c3nc(CN(CCO)CCO)cs3)ccc21 | 30 nM

// lookup IC50 for "CCn1cc(NC(=O)NCc2ccc(OC)c(Cl)c2)c2cc(-c3nc(CN(CCO)CCO)cs3)ccc21" 2.17 nM

----------
- METHOD_NOTES: Cytotoxicity against human HBE cells assessed as lethal dose
- Assay type: toxicity, cell-based
- MEASUREMENT_CONDITIONS: HBE cells (epithelial cell line), read-out: LD50 (the source's name)
PARAMETER: CC50

// lookup CC50 for "CCn1cc(NC(=O)NCc2ccc(OC)c(Cl)c2)c2cc(-c3nc(CN(CCO)CCO)cs3)ccc21" > 20 µM

----------
- METHOD_NOTES: AUC (0 to infinity) in rat at 60 mg/kg, po by LC-MS/MS analysis
- Assay type: ADME, organism-based
- Design: time infinity, dose 60 mg/kg, route po
- MEASUREMENT_CONDITIONS: in vivo
As shown below, each of these compounds has a reported AUC value.
Answer in ng·h/mL, number only, no unit symbol.

- CCn1cc(NC(=O)NCc2ccc(OC)c(Cl)c2)c2cc(-c3nc(CN(CCO)CCO)cs3)ccc21: 680

# input for lookup
// lookup AUC for "CCn1cc(NC(=O)OCc2cc(Cl)cc(Cl)c2)c2cc(-c3nc(CN4CCOCC4)cs3)ccc21" 240

----------
- METHOD_NOTES: AUC (0 to t) in rat at 60 mg/kg, po by LC-MS/MS analysis
- Type: ADME, organism-based
- Set-up: dose 60 mg/kg, route po
- MEASUREMENT_CONDITIONS: in vivo
PARAMETER: AUCt (ng·h/mL)
Answer in ng·h/mL, number only, no unit symbol.

// lookup AUCt for "CCn1cc(NC(=O)OCc2cc(Cl)cc(Cl)c2)c2cc(-c3nc(CN4CCOCC4)cs3)ccc21" 240

----------
- METHOD_NOTES: Half life in rat at 60 mg/kg, po by LC-MS/MS analysis
- Type: ADME, organism-based
- MEASUREMENT_CONDITIONS: in vivo
PARAMETER: half-life (h)
Answer in h, number only, no unit symbol.

- CCn1cc(NC(=O)OCc2cc(Cl)cc(Cl)c2)c2cc(-c3nc(CN4CCOCC4)cs3)ccc21: 2.56

# input for lookup
// lookup half-life for "CCn1cc(NC(=O)NCc2ccc(OC)c(Cl)c2)c2cc(-c3nc(CN(CCO)CCO)cs3)ccc21" 3.11

----------
- METHOD_NOTES: Cmax in rat at 60 mg/kg, po by LC-MS/MS analysis
- Assay type: ADME, organism-based
- Parameters: dose 60 mg/kg, route po
- MEASUREMENT_CONDITIONS: in vivo
PARAMETER: Cmax (µg/mL)
Answer in µg/mL, number only, no unit symbol.

// lookup Cmax for "CCn1cc(NC(=O)NCc2ccc(OC)c(Cl)c2)c2cc(-c3nc(CN(CCO)CCO)cs3)ccc21" 0.131

----------
As shown below, each of these molecules has a reported Tmax value.
- METHOD_NOTES: Tmax in rat at 60 mg/kg, po by LC-MS/MS analysis
- Type: ADME, organism-based
- MEASUREMENT_CONDITIONS: in vivo
Kindly write the number and append the unit.

• CCn1cc(NC(=O)OCc2cc(Cl)cc(Cl)c2)c2cc(-c3nc(CN4CCOCC4)cs3)ccc21 = 2.67 h

# input for lookup
// lookup Tmax for "CCn1cc(NC(=O)NCc2ccc(OC)c(Cl)c2)c2cc(-c3nc(CN(CCO)CCO)cs3)ccc21" 3.91 h

----------
- METHOD_NOTES: Cmax in rat at 60 mg/kg, po by LC-MS/MS analysis
- Assay type: ADME, organism-based
- Design: dose 60 mg/kg, route po
- MEASUREMENT_CONDITIONS: in vivo, read-out: Cmax
PARAMETER: Cmax (ng/mL)
Answer in ng/mL, number only, no unit symbol.

// lookup Cmax for "CCn1cc(NC(=O)OCc2cc(Cl)cc(Cl)c2)c2cc(-c3nc(CN4CCOCC4)cs3)ccc21" 50
